Tested on: NCI-H226 lung
Assay: NCI tumour cell line growth inhibition, 48 h
metric: GI50

## Task Entry `COC(=O)c1ccc([C@H]2c3[nH]c4ccccc4c3C[C@H](C(=O)OC)N2C(=O)CCl)cc1` : reported GI50 = ?
## Result 2.21 µM

## Task Entry C=CCCCC(=O)CCC(=O)OCC1O[C@@H](O[C@@H]2C(O)[C@@H](OC(C)=O)C(C)O[C@H]2O[C@H](CC=C)CCCCC)C(O)[C@@H](OC(=O)/C(C)=C/C)[C@@H]1OC(=O)/C=C/c1ccccc1 (stereo partly drawn) : reported GI50 = ?
## Result 0.564 µM

## Task Entry `COc1cc2c3c(n(CCCNCCCNCCCn4c5c(c6cc(OC)c(OC)cc6c4=O)C(=O)c4ccccc4-5)c(=O)c2cc1OC)-c1ccccc1C3=O` : reported GI50 = ?
## Result 7.89 µM

* * *

System: SK-OV-3 ovarian
Assay: NCI tumour cell line growth inhibition, 48 h
metric: TGI

## Task Please provide the recorded TGI for `CC1=Nn2c(nnc2-c2ccccc2Cl)NC(C)(C)C1` , tested on SK-OV-3 ovarian.
## Result > 100 µM

## Task Please provide the recorded TGI for `CC1=C2[C@H]3OC(=O)[C@@H](C)[C@@H]3CC[C@@]2(C)C=CC1=O` , tested on SK-OV-3 ovarian.
## Result > 100 µM

## Task Please provide the recorded TGI for CC1(C)C(O)OC(O)C1(C)C (stereo not drawn) , tested on SK-OV-3 ovarian.
## Result > 100 µM

## Task Please provide the recorded TGI for Cc1cc(=O)[nH]c(NN2C(Cl)C(=O)C2c2ccc(O)cc2)n1 (stereo not drawn) , tested on SK-OV-3 ovarian.
## Result 23.4 µM

## Task Please provide the recorded TGI for CCN1CC2(COC)C(O)CC(OC)C34C5CC6(O)C(OC)C=C(C5C6OC(=O)c5ccc(OC)c(OC)c5)C(C(OC)C23)C14 (stereo not drawn) , tested on SK-OV-3 ovarian.
## Result > 7.5 µM

## Task Please provide the recorded TGI for `O=C1/C(=C/c2ccc(Cl)cc2)CCC/C1=C\c1ccc(O)c(CN2CCCCC2)c1` , tested on SK-OV-3 ovarian.
## Result 89.5 µM

## Task Please provide the recorded TGI for `Cc1c(C(=N)N)oc2ccccc12` , tested on SK-OV-3 ovarian.
## Result > 100 µM

## Task Please provide the recorded TGI for `C[C@]12CC[C@@H]3c4ccc(OS(N)(=O)=O)cc4CC[C@H]3[C@@H]1CCC2=O` , tested on SK-OV-3 ovarian.
## Result > 100 µM

## Task Please provide the recorded TGI for `Cn1ccnc1C(=O)/C=C/c1ccc(C(=O)Nc2ccccc2F)cc1` , tested on SK-OV-3 ovarian.
## Result 20.6 µM

## Task Please provide the recorded TGI for `COc1cccc(NC(=O)c2c(SC)c(C#N)c(=O)n(N)c2N)c1` , tested on SK-OV-3 ovarian.
## Result > 100 µM

## Task Please provide the recorded TGI for COc1ccc(C2C(Cl)C(=O)N2NC(=O)c2ccccc2O)cc1 (stereo not drawn) , tested on SK-OV-3 ovarian.
## Result > 100 µM

## Task Please provide the recorded TGI for `CCCOc1cc2c(cc1O)CC[C@@H]1[C@@H]2CC[C@]2(C)[C@@H](O)CC[C@@H]12` , tested on SK-OV-3 ovarian.
## Result 50.5 µM

## Task Please provide the recorded TGI for O=c1[nH]cnc2c1cnn2Cc1cn(COCC(O)CO)nn1 (stereo not drawn) , tested on SK-OV-3 ovarian.
## Result > 100 µM

## Task Please provide the recorded TGI for `Cn1c(=O)n2c(=O)n(C)c(=O)n2c1=O` , tested on SK-OV-3 ovarian.
## Result > 100 µM

## Task Please provide the recorded TGI for `Cc1cc(C)c(S(=O)(=O)N2CCN(c3cc4c(cc3F)c(=O)c(C(=O)O)cn4C3CC3)CC2)c(C)c1` , tested on SK-OV-3 ovarian.
## Result > 100 µM

## Task Please provide the recorded TGI for `COc1nc(C(=O)O)c(Cl)c(OC)c1Cl` , tested on SK-OV-3 ovarian.
## Result > 100 µM

## Task Please provide the recorded TGI for `CCOC(=O)c1cnc2oc(-c3ccc(OC)cc3)nn2c1=O` , tested on SK-OV-3 ovarian.
## Result > 100 µM

## Task Please provide the recorded TGI for `Cc1c(-c2ccc(O)c(O)c2)oc(=O)c2c(O)cc(O)cc12` , tested on SK-OV-3 ovarian.
## Result > 100 µM

## Task Please provide the recorded TGI for COC(=O)/C(C#N)=C1\CCC(Nc2cccc(C(F)(F)F)c2)N1C (stereo not drawn) , tested on SK-OV-3 ovarian.
## Result > 100 µM

## Task Please provide the recorded TGI for `CCN(CCCl)CCCCNc1c2ccccc2nc2ccc(OC)cc12` , tested on SK-OV-3 ovarian.
## Result 2.77 µM

## Task Please provide the recorded TGI for `C=C(CC[C@@H](C)[C@H]1CC[C@H]2[C@@H]3C[C@@H](O)[C@H]4C[C@@H](O)CC[C@]4(CO)[C@H]3CC[C@]12C)C(C)C` , tested on SK-OV-3 ovarian.
## Result 16.3 µM

## Task Please provide the recorded TGI for Clc1ccc(C2c3ccccc3-c3nc4ccccc4n32)cc1 (stereo not drawn) , tested on SK-OV-3 ovarian.
## Result > 39 µM

## Task Please provide the recorded TGI for CCOC(=O)C(NC(=O)CC)(C(F)(F)F)P(=O)(OCC)OCC (stereo not drawn) , tested on SK-OV-3 ovarian.
## Result > 100 µM

* * *

Tested on: NCI-H460 lung
Experiment: NCI tumour cell line growth inhibition, 48 h
metric: TGI

## Task Entry `Cc1c(CN)c(C)c(CN)c(C)c1CN` : reported TGI = ?
## Result > 100 µM

## Task Entry COC(O)C(=O)c1c2c(cc3c1CCC3)CCCC2 (configuration not stated) : reported TGI = ?
## Result 19.7 µM

## Task Entry C=CCCCC(=O)CCC(=O)OCC1O[C@@H](O[C@@H]2C(O)[C@@H](OC(C)=O)C(C)O[C@H]2O[C@H](CC=C)CCCCC)C(O)[C@@H](OC(=O)/C(C)=C/C)[C@@H]1OC(=O)/C=C/c1ccccc1 (some centres not stated) : reported TGI = ?
## Result > 50 µM

## Task Entry COC1OC(C)C(OC(=O)C(C)(C)C)C(OS(=O)(=O)c2ccc(C)cc2)C1OS(=O)(=O)c1ccc(C)cc1 (configuration not stated) : reported TGI = ?
## Result > 100 µM

## Task Entry `CO[C@]12C#CC=CC#C[C@@H](O)[C@]3(CCC1)O[C@@]23c1cccc(O)c1` : reported TGI = ?
## Result > 100 µM

## Task Entry `CN(C)c1ccc(/C=C2\N=C(N/N=C/c3ccc(N(C)C)cc3)NC2=O)cc1` : reported TGI = ?
## Result > 100 µM

## Task Entry `O=C(/C=C/c1ccc(OCc2ccccc2)c(OCc2ccccc2)c1)OCc1ccccc1` : reported TGI = ?
## Result > 100 µM

* * *

For each record, write down the corresponding GI50.
System: HL-60(TB) leukemia
Assay: NCI tumour cell line growth inhibition, 48 h

## Task Entry `NC(=O)[C@@H](CCC(F)(F)F)N(Cc1ccc(-c2ncon2)cc1F)S(=O)(=O)c1ccc(Cl)cc1` : reported GI50 = ?
## Result 23.7 µM

## Task Entry Nc1c(C(=O)Nc2ccccc2)sc2nc3c(cc12)C(O)CCC3 (stereo unspecified) : reported GI50 = ?
## Result 0.232 µM

## Task Entry `CCCCCCC/C(=N\N=C(N)N)c1ccc(O)cc1` : reported GI50 = ?
## Result 1.75 µM

## Task Entry C=CCCCC(=O)CCC(=O)OCC1O[C@@H](O[C@@H]2C(O)[C@@H](OC(C)=O)C(C)O[C@H]2O[C@H](CC=C)CCCCC)C(O)[C@@H](OC(=O)/C(C)=C/C)[C@@H]1OC(=O)/C=C/c1ccccc1 (stereo partly specified) : reported GI50 = ?
## Result 0.673 µM

## Task Entry CC12CC[C@@H]3c4cc5c(cc4CC[C@H]3[C@@H]1CCC2O)oc1cc(F)ccc15 (stereo partly specified) : reported GI50 = ?
## Result 7.74 µM

## Task Entry `COc1cc(C(=O)/C=C/c2cc(-c3cc(OC)c(OC)c(OC)c3)n[nH]2)cc(OC)c1OC` : reported GI50 = ?
## Result 1.93 µM

## Task Entry `c1cc2ccc3cc2cc1CNCCN1CCNCc2ccc4ccc(cc4c2)CNCCN(CCNC3)CCNCc2ccc3ccc(cc3c2)CNCC1` : reported GI50 = ?
## Result 2.32 µM

## Task Entry `CO/N=C(\COc1ccc2c(=O)cc(-c3ccccc3)oc2c1)c1ccc(F)cc1` : reported GI50 = ?
## Result 21 µM

## Task Entry `O=c1c2c3c(sc2n2c(CCl)nnc2n1Cc1ccccc1)CCCC3` : reported GI50 = ?
## Result 2.16 µM

## Task Entry `COc1cc2c3c(n(CCCN(C)C)c(=O)c2cc1OC)-c1cc2c(cc1C3=O)OCO2` : reported GI50 = ?
## Result 1.01 µM

## Task Entry `Cn1ccnc1C(=O)/C=C/c1ccc(C(=O)Nc2ccccc2F)cc1` : reported GI50 = ?
## Result 1.6 µM

## Task Entry `COc1ccc(NC(=O)c2sc3nc(C)c(C(=O)/C=C/c4ccccc4)cc3c2N)cc1` : reported GI50 = ?
## Result 0.971 µM

## Task Entry `COc1ccc(C(=O)NCCNc2nccc(-c3c(-c4ccc(F)cc4)nc4sccn34)n2)cc1` : reported GI50 = ?
## Result 13.6 µM

## Task Entry COc1ccc(C(=O)C2C(C#N)C(C#N)C3C=Cc4ccccc4N32)cc1 (stereo unspecified) : reported GI50 = ?
## Result 1.23 µM

## Task Entry O=C(CC1(O)C(=O)N(Cc2ccccc2)c2ccc(Br)cc21)c1ccc(C(=O)NCC2CCC3(CC2)OOC2(CCCCC2)OO3)cc1 (stereo unspecified) : reported GI50 = ?
## Result 0.33 µM

## Task Entry `Cc1ccc(S(=O)(=O)Oc2ccccc2-c2ccccc2)cc1` : reported GI50 = ?
## Result 2.12 µM
